Tested on: MV4,11 cells
Experiment: FLT3 assay using MV4,11 cells (cellular proliferation, MTS)
Type: cell-based, human
Settings: cell assay code CS0001
VALUE KIND: Cell Assay: CS0001:IC50

CC(C)(C)c1cc(NC(=O)Nc2ccc(NC(=O)c3cn4cc(Cl)ccc4n3)cc2)no1
+ + + +
CC(C)(C)c1cc(NC(=O)Nc2ccc(Nc3nc(Cl)nc4[nH]cnc34)cc2)no1
+ + + +
Cn1nc(C(F)(F)F)c(C(=O)Nc2ccc(NC(=O)Nc3cc(C(C)(C)C)on3)cc2)c1Cl
+ + +
COc1nc(C)cc(C)c1C(=O)Nc1ccc(NC(=O)Nc2cc(C(C)(C)C)on2)cc1
+ + +
Cc1cc(C)nc(N(C)c2ccc(C(=O)Nc3ccc(NC(=O)Nc4cc(C(C)(C)C)on4)cc3)cc2)n1
+ + + +
CC(C)(C)c1cc(NC(=O)Nc2ccc(NC(=O)c3ccnc4ccccc34)cc2)no1
+ + +

Please report Cell Assay: CS0001:IC50 for every entry that follows.
1. Cc1nnsc1C(=O)Nc1ccc(NC(=O)Nc2cc(C(C)(C)C)on2)cc1
2. CC(C)(C)c1cc(NC(=O)Nc2ccc(NC(=O)c3cc4cc(Br)ccc4s3)cc2)no1 [Compound N126]

+ +
+ + + +
